Origin of the recorded values: the METLIN SMRT retention time set (Domingo-Almenara et al. 2019)

Assay: gradient 5% acetonitrile 3 min, to 50% in 2 min, to 85% in 15 min, held 3 min, 100 µL/min
Settings: column: Zorbax Extend-C18 2.1 x 50 mm; eluents: water / acetonitrile, 0.1% formic acid
measurement-kind: RP-LC retention time (s)

Record excerpt, results attached:
compound: Cc1sc(NC(=O)c2ccccc2)nc1-c1ccc2c(c1)NC(=O)C(C)O2 (centres undefined)
unit-info: s
reported: 931

compound: CCCc1noc(-c2ccc(-n3ncc(C(=O)NC4CC4)c3C)nc2)n1
unit-info: s
reported: 865

compound: Cc1nn(CC(=O)NCC2CCCCC2)c(=O)c2nc(-c3ccccc3)sc12
unit-info: s
reported: 958

(a) COc1cccc(N2CCN(C(=O)C3CCN(S(=O)(=O)c4cn(C(C)C)cn4)CC3)CC2)c1
(b) O=C(Nc1ccccc1)c1c(O)c2cccnc2n(-c2ccc(F)cc2)c1=O
*Q* Please state the entry with greater RP-LC retention time among a and b . Please reply using the label of the selected record.
*A* b

* * *

Test: gradient 5% acetonitrile 3 min, to 50% in 2 min, to 85% in 15 min, held 3 min, 100 µL/min
Conditions: column: Zorbax Extend-C18 2.1 x 50 mm; eluents: water / acetonitrile, 0.1% formic acid
measurement-kind: RP-LC retention time (s)

A selection of reference data follows.
compound: CC1CCC(N2CC(=O)N(CCN3CCOCC3)C(c3cccnc3)C2=O)CC1 (centres undefined)
RP-LC retention time (s): 548
//
compound: Cc1c2cnn(-c3ccccc3)c(=O)c2c(C)n1C(C)C(=O)NCCN1CCCC1 (centres undefined)
RP-LC retention time (s): 617

(1) Cc1cccc(N(C)C(=O)Cn2c(=O)n(-c3cccc(C)c3)c(=O)c3c2cc(C)n3C)c1
(2) Cc1ccc(NC(=O)c2csc(-c3cn(C)c4ncccc34)n2)c(F)c1
*Q* Please compare: 1 and 2 . Report which one has the smaller RP-LC retention time value. Please indicate the selected item by its label.
*A* 1
(1: 752 s, 2: 1160 s)

* * *

Assay: gradient 5% acetonitrile 3 min, to 50% in 2 min, to 85% in 15 min, held 3 min, 100 µL/min
Details: column: Zorbax Extend-C18 2.1 x 50 mm; eluents: water / acetonitrile, 0.1% formic acid
measurement-kind: RP-LC retention time (s)

Example cases with answers are listed next.
compound: O=C(NC1CCCCC1)c1ccc(-n2cccn2)nc1
measurement-kind: RP-LC retention time
unit-info: s
reported: 815

compound: CCC(=O)Nc1ccc(CCc2nc3ccc(C(=O)NC(C)C)cc3[nH]2)cc1
measurement-kind: RP-LC retention time
unit-info: s
reported: 813

compound: COc1ccc(Cl)cc1C(=O)N1CCN(c2cc(C)nc(N3CCOCC3)n2)CC1
measurement-kind: RP-LC retention time
unit-info: s
reported: 644

compound: O=C(Cc1nnc2c(-c3nc(C4CC4)no3)cccn12)N1CCc2ccccc2C1
measurement-kind: RP-LC retention time
unit-info: s
reported: 722

compound: CCn1ncc(NC(=O)COc2ccccc2C)c(N2CCOCC2)c1=O
measurement-kind: RP-LC retention time
unit-info: s
reported: 889

compound: CC(=O)N1CCc2ccccc2C1C(=O)NCc1ccc2c(c1)OCO2 (stereo not given)
measurement-kind: RP-LC retention time
unit-info: s
reported: 731

compound: CCOC(=O)c1c(S(=O)(=O)N2CCC(C(=O)NC3CCCC3)CC2)c(C)n(C)c1C
measurement-kind: RP-LC retention time
unit-info: s
reported: 766

compound: Cc1cc2c(=O)n(CC(=O)Nc3ccc(Cl)cc3C)ccc2s1
measurement-kind: RP-LC retention time
unit-info: s
reported: 833

(A) Cc1cccc(CN2C[C@@H]3C(=O)N(Cc4ccc5c(c4)OCO5)C(=O)[C@@H]3C2)c1
(B) Cc1nc(-c2cc(S(=O)(=O)NCc3ccccc3Cl)c(C)s2)cs1
*Q* When their RP-LC retention time values are compared, which is larger, A or B ? Pick one; state its label.
*A* B
(B: 1080 s, A: 734 s)
